- System: HeLa Kyoto;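 note: HeLa Kyoto cells synchronized by double thymidine or nocodazole block, proteins quantified by TMT10plex mass spectrometry, three independent biological replicates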
- Experiment: melting temperature (median over replicates), in situ; higher = more thermally stable
- Setup Conditions: cell cycle stage: mitosis
This listing pairs sequences with measured melting temperature.
Assay Readout: melting temperature (°C)

INSERT INTO assay_data (biopolymer_sequence, assay_readout, units_symbol, numeric_result) VALUES
  ('MASPQLCRALVSAQWVAEALRAPRAGQPLQLLDASWYLPKLGRDARREFEERHIPGAAFFDIDQCSDRTSPYDHMLPGAEHFAEYAGRLGVGAATHVVIYDASDQGLYSAPRVWWMFRAFGHHAVSLLDGGLRHWLRQNLPLSSGKSQPAPAEFRAQLDPAFIKTYEDIKENLESRRFQVVDSRATGRFRGTEPEPRDGIEPGHIPGTVNIPFTDFLSQEGLEKSPEEIRHLFQEKKVDLSKPLVATCGSGVTACHVALGAYLCGKPDVPIYDGSWVEWYMRARPEDVISEGRGKTH [MPST]', 'melting temperature', '°C', 50.5),
  ('MSELEQLRQEAEQLRNQIRDARKACGDSTLTQITAGLDPVGRIQMRTRRTLRGHLAKIYAMHWGTDSRLLVSASQDGKLIIWDSYTTNKVHAIPLRSSWVMTCAYAPSGNFVACGGLDNICSIYSLKTREGNVRVSRELPGHTGYLSCCRFLDDNQIITSSGDTTCALWDIETGQQTVGFAGHSGDVMSLSLAPDGRTFVSGACDASIKLWDVRDSMCRQTFIGHESDINAVAFFPNGYAFTTGSDDATCRLFDLRADQELLMYSHDNIICGITSVAFSRSGRLLLAGYDDFNCNIWDAMKGDRAGVLAGHDNRVSCLGVTDDGMAVATGSWDSFLKIWN [GNB2]', 'melting temperature', '°C', 55.5),
  ('MAPSGSLAVPLAVLVLLLWGAPWTHGRRSNVRVITDENWRELLEGDWMIEFYAPWCPACQNLQPEWESFAEWGEDLEVNIAKVDVTEQPGLSGRFIITALPTIYHCKDGEFRRYQGPRTKKDFINFISDKEWKSIEPVSSWFGPGSVLMSSMSALFQLSMWIRTCHNYFIEDLGLPVWGSYTVFALATLFSGLLLGLCMIFVADCLCPSKRRRPQPYPYPSKKLLSESAQPLKKVEEEQEADEEDVSEEEAESKEGTNKDFPQNAIRQRSLGPSLATDKS [TMX1]', 'melting temperature', '°C', 55.9),
  ('MAPLLLQLAVLGAALAAAALVLISIVAFTTATKMPALHRHEEEKFFLNAKGQKETLPSIWDSPTKQLSVVVPSYNEEKRLPVMMDEALSYLEKRQKRDPAFTYEVIVVDDGSKDQTSKVAFKYCQKYGSDKVRVITLVKNRGKGGAIRMGIFSSRGEKILMADADGATKFPDVEKLEKGLNDLQPWPNQMAIACGSRAHLEKESIAQRSYFRTLLMYGFHFLVWFLCVKGIRDTQCGFKLFTREAASRTFSSLHVERWAFDVELLYIAQFFKIPIAEIAVNWTEIEGSKLVPFWSWLQMGKDLLFIRLRYLTGAWRLEQTRKMN [ALG5]', 'melting temperature', '°C', 53.8),
  ('MAAPAVSGLSRQVRCFSTSVVRPFAKLVRPPVQVYGIEGRYATALYSAASKQNKLEQVEKELLRVAQILKEPKVAASVLNPYVKRSIKVKSLNDITAKERFSPLTTNLINLLAENGRLSNTQGVVSAFSTMMSVHRGEVPCTVTSASPLEEATLSELKTVLKSFLSQGQVLKLEAKTDPSILGGMIVRIGEKYVDMSVKTKIQKLGRAMREIV [ATP5O]', 'melting temperature', '°C', 53.2);
